# Test system: A2780 cells
# assay_text: Cell proliferation assay (A2780)
# Format: cell-based
# reported_conditions: Homo sapiens, 168 h, 7 days
pIC50: −log10 of the molar value.
Measured pIC50 by item

Some molecules with known pIC50 results, for comparison:
INSERT INTO results (molecule, measured_on, metric_name, result) VALUES
  ('CCc1cccc(-c2cnc(C(=O)N3CCC(CN4CCN(CC(=O)N5CCN(C(=O)c6cc(Cc7n[nH]c(=O)c8ccccc78)ccc6F)CC5)CC4)CC3)c(NC(C)=O)c2)c1', 'A2780 cells', 'pIC50', '6.00 to 7.00'),
  ('CC1(C(=O)N2CCC(c3cccc(C(=O)N[C@@H](C(=O)N4CCC(OC5CCN(CC(=O)N6CCN(C(=O)c7cc(Cc8n[nH]c(=O)c9ccccc89)ccc7F)CC6)CC5)CC4)C4CCCCC4)c3F)CC2)CC1', 'A2780 cells', 'pIC50', '7.00 to 8.00'),
  ('O=C(N[C@@H](C(=O)N1CCN(CC2CCN(CC(=O)N3CCN(C(=O)c4cc(Cc5n[nH]c(=O)c6ccccc56)ccc4F)CC3)CC2)CC1)C1CCCCC1)c1cccc([C@@H]2CCCN(C(=O)CNC3CC3)C2)c1', 'A2780 cells', 'pIC50', '5.00 to 6.00'),
  ('CCc1cccc(-c2cnc(C(=O)NC34CCC(CN5CCN(CC(=O)N6CCN(C(=O)c7cc(Cc8n[nH]c(=O)c9ccccc89)ccc7F)CC6)CC5)(CC3)OC4)c(N)c2)c1', 'A2780 cells', 'pIC50', '7.00 to 8.00'),
  ('CCc1cccc(-c2cnc(C(=O)N3CCN(CC4CCN(CC(=O)N5CCN(C(=O)c6cc(Cc7n[nH]c(=O)c8ccccc78)ccc6F)CC5)CC4)CC3)c(NC(=O)CNCc3ccncn3)c2)c1', 'A2780 cells', 'pIC50', '5.00 to 6.00'),
  ('O=C(N[C@@H](C(=O)N1CCN(CC2CCN(CC(=O)N3CCN(C(=O)c4cc(Cc5n[nH]c(=O)c6ccccc56)ccc4F)CC3)CC2)CC1)C1CCCCC1)c1cccc(C2CCCN(C(=O)CNCc3ccc(F)cc3F)C2)c1 (stereo partly drawn)', 'A2780 cells', 'pIC50', '6.00 to 7.00'),
  ('CC1(C(=O)N2CC(c3cccc(C(=O)N[C@@H](C(=O)N4CCC(OC5CCN(CC(=O)N6CCN(C(=O)c7cc(Cc8n[nH]c(=O)c9ccccc89)ccc7F)CC6)CC5)CC4)C4CCCCC4)c3F)CCC2(C)C)CC1 (stereo partly drawn)', 'A2780 cells', 'pIC50', '7.00 to 8.00'),
  ('CC1(OC2CCN(CC(=O)N3CCN(C(=O)c4cc(Cc5n[nH]c(=O)c6ccccc56)ccc4F)CC3)CC2)CCN(C(=O)[C@H](NC(=O)c2cccc(C3CCCN(C(=O)C45CC(C4)C5)C3)c2F)C2CCCCC2)CC1 (stereo partly drawn)', 'A2780 cells', 'pIC50', '6.00 to 7.00');

Entry O=C(N[C@@H](C(=O)N1CCN(CC2CCN(CC(=O)N3CCN(C(=O)c4cc(Cc5n[nH]c(=O)c6ccccc56)ccc4F)CC3)CC2)CC1)C1CCCCC1)c1cccc(C2CCCN(C(=O)CNC3CC3)C2)c1 (stereo partly drawn) — recorded pIC50 = 6.00 to 7.00

pIC50 for CC(C)(C)OC(=O)N[C@@H](C(=O)N1C[C@H]2CC[C@@H](C1)[C@H]2OC1CCN(CC(=O)N2CCN(C(=O)c3cc(Cc4n[nH]c(=O)c5ccccc45)ccc3F)CC2)CC1)C1CCCCC1 is 7.00 to 8.00

Quick note, pIC50 for O=C(N[C@@H](C(=O)N1CCN(CC23CCC(C(=O)N4CCN(C(=O)c5cc(Cc6n[nH]c(=O)c7ccccc67)ccc5F)CC4)(CC2)CO3)CC1)C1CCCCC1)c1cccc(C2CCCN(C(=O)CNC3CC3)C2)c1 (stereo partly drawn) landed at 7.00 to 8.00

The recorded pIC50 for entry O=C(CNC1CC1)N1CCCC(c2cccc(C(=O)N3CCN(CC45CCC(C(=O)N6CCN(C(=O)c7cc(Cc8n[nH]c(=O)c9ccccc89)ccc7F)CC6)(CC4)CO5)CC3)c2)C1 (stereo not drawn) equals 7.00 to 8.00

Briefly, pIC50 measured for O=C(N[C@@H](C(=O)N1CCN(CC(=O)N2CCN(C(=O)c3cc(Cc4n[nH]c(=O)c5ccccc45)ccc3F)CC2)CC1)C1CCCCC1)c1cc(C2CCCN(C(=O)C3CC3)C2)ccc1F (stereo partly drawn) : 7.00 to 8.00

---

# System: Poly/Mono-ADP Ribose in U2OS cells
# assay_text: PAR in cell western assay (parylation) in U2OS cells
# Type: cell-based
# reported_conditions: Homo sapiens; U2OS cells, 6 hrs, 2 mM H2O2; read-out: Parylation (U2OS)
Recorded IC50 for the following molecules

Here are 10 molecules together with their reported answers.
INSERT INTO assay_data (molecule, metric_name, result) VALUES
  ('CC(C)(C)OC(=O)N[C@@H](C(=O)N1C[C@H]2CC[C@@H](C1)[C@H]2OC1CCN(CC(=O)N2CCN(C(=O)c3cc(Cc4n[nH]c(=O)c5ccccc45)ccc3F)CC2)CC1)C1CCCCC1', 'IC50', '10 to 100 nM'),
  ('CCc1cccc(-c2cnc(C(=O)N3CCC(CN4CCN(CC(=O)N5CCN(C(=O)c6cc(Cc7n[nH]c(=O)c8ccccc78)ccc6F)CC5)CC4)CC3)c(NC)c2)c1', 'IC50', '100 to 1000 nM'),
  ('O=C(CN1CCC(OC2CCN(C(=O)c3c(F)cc(-c4ccccc4)cc3F)CC2)CC1)N1CCN(C(=O)c2cc(Cc3n[nH]c(=O)c4ccccc34)ccc2F)CC1', 'IC50', '< 10 nM'),
  ('O=C(CN1CCC(OC2CCN(C(=O)c3c(F)cc(-c4ccnnc4)cc3F)CC2)CC1)N1CCN(C(=O)c2cc(Cc3n[nH]c(=O)c4ccccc34)ccc2F)CC1', 'IC50', '10 to 100 nM'),
  ('O=C(N[C@@H](C(=O)N1CCC(CC(=O)N2CCN(C(=O)c3cc(Cc4n[nH]c(=O)c5ccccc45)ccc3F)CC2)CC1)C1CCCCC1)c1cccc(C2CCCN(C(=O)C3CC3)C2)c1F (stereo partly shown)', 'IC50', '10 to 100 nM'),
  ('CCOc1cc(OC)ccc1CNCC(=O)N1CCC[C@H](c2cccc(C(=O)N[C@@H](C(=O)N3CCN(CC4CCN(CC(=O)N5CCN(C(=O)c6cc(Cc7n[nH]c(=O)c8ccccc78)ccc6F)CC5)CC4)CC3)C3CCCCC3)c2)C1', 'IC50', '100 to 1000 nM'),
  ('CCc1cccc(-c2cnc(C(=O)NCCCCCNCC(=O)N3CCN(C(=O)c4cc(Cc5n[nH]c(=O)c6ccccc56)ccc4F)CC3)c(NC(=O)CNCc3cccc(C)c3)c2)c1', 'IC50', '100 to 1000 nM'),
  ('CCc1cccc(-c2cnc(C(=O)N3CCC(CN4CCN(CC(=O)N5CCN(C(=O)c6cc(Cc7n[nH]c(=O)c8ccccc78)ccc6F)CC5)CC4)CC3)c(NC(=O)CN3CCOCC3)c2)c1', 'IC50', '10 to 100 nM'),
  ('O=C(N[C@@H](C(=O)N1CCC(OC2CCN(CC(=O)N3CCN(C(=O)c4cc(Cc5n[nH]c(=O)c6ccccc56)ccc4F)CC3)CC2)CC1)C1CCCCC1)c1ccc(N2CCN(C(=O)C3CC3)CC2)cc1F', 'IC50', '10 to 100 nM'),
  ('CCc1cccc(-c2cnc(C(=O)N3CCC(CN4CCN(CC(=O)N5CCN(C(=O)c6cc(Cc7n[nH]c(=O)c8ccccc78)ccc6F)CC5)CC4)CC3)c(NC(C)=O)c2)c1', 'IC50', '100 to 1000 nM');

The observed IC50 for O=C(CN1CCN(C[C@@H]2C[C@@H]3CC[C@H]2CN3C(=O)c2c(F)cc(-c3ccccc3)cc2F)CC1)N1CCN(C(=O)c2cc(Cc3n[nH]c(=O)c4ccccc34)ccc2F)CC1 when tested with Poly/Mono-ADP Ribose in U2OS cells stands at 10 to 100 nM

The molecule C[C@@H]1CN(CC2CCN(CC(=O)N3CCN(C(=O)c4cc(Cc5n[nH]c(=O)c6ccccc56)ccc4F)CC3)CC2)CCN1C(=O)[C@H](NC(=O)c1cccc([C@@H]2CCCN(C(=O)C(C)(C)C)C2)c1)C1CCCCC1 on Poly/Mono-ADP Ribose in U2OS cells: IC50 was 100 to 1000 nM

Case O=C(N[C@@H](C(=O)N1CCN(CC(=O)N2CCN(C(=O)c3cc(Cc4n[nH]c(=O)c5ccccc45)ccc3F)CC2)CC1)C1CCCCC1)c1cc(C2CCCN(C(=O)C3CC3)C2)ccc1F (stereo partly shown) , Poly/Mono-ADP Ribose in U2OS cells, IC50 recorded as 100 to 1000 nM

Let me check: CCc1cccc(-c2cnc(C(=O)N3CCC(CN4CCN(CC(=O)N5CCN(C(=O)c6cc(Cc7n[nH]c(=O)c8ccccc78)ccc6F)CC5)CC4)CC3)c(C#N)c2)c1 , system Poly/Mono-ADP Ribose in U2OS cells, measured IC50 is 10 to 100 nM

Record CCc1cccc(-c2cnc(C(=O)NCCOCCNCC(=O)N3CCN(C(=O)c4cc(Cc5n[nH]c(=O)c6ccccc56)ccc4F)CC3)c(C)c2)c1 / Poly/Mono-ADP Ribose in U2OS cells, IC50 recorded as 10 to 100 nM

Known value: Poly/Mono-ADP Ribose in U2OS cells IC50 of the molecule CCc1cccc(-c2cnc(C(=O)N3CCN(CC4CCN(CC(=O)N5CCN(C(=O)c6cc(Cc7n[nH]c(=O)c8ccccc78)ccc6F)CC5)CC4)CC3)c(NC(=O)CNCc3cc(C)no3)c2)c1 equals 10 to 100 nM

CCOc1cc(OC)ccc1CNCC(=O)N1CCCC(c2ccc(F)c(C(=O)N[C@@H](C(=O)N3CCN(CC4CCN(CC(=O)N5CCN(C(=O)c6cc(Cc7n[nH]c(=O)c8ccccc78)ccc6F)CC5)CC4)CC3)C3CCCCC3)c2)C1 (stereo partly shown) on Poly/Mono-ADP Ribose in U2OS cells gives IC50 = 10 to 100 nM

Tested on Poly/Mono-ADP Ribose in U2OS cells, the item O=C(N[C@@H](C(=O)N1CCN(CC2CCN(CC(=O)N3CCN(C(=O)c4cc(Cc5n[nH]c(=O)c6ccccc56)ccc4F)CC3)CC2)CC1)C1CCCCC1)c1cccc(C2CCCN(C(=O)CNCc3ccc(F)cc3F)C2)c1 (stereo partly shown) showed IC50 equal to 100 to 1000 nM

Field IC50 (system: Poly/Mono-ADP Ribose in U2OS cells) for entry CCc1cccc(-c2cnc(C(=O)N3CCC(CN4CCN(CC(=O)N5CCN(C(=O)c6cc(Cc7n[nH]c(=O)c8ccccc78)ccc6F)CC5)CC4)CC3)c(NC(=O)CNCc3ccc(F)cc3F)c2)c1 = 10 to 100 nM
